Hello, the source for this data is paper PMC3167688, in case you need it.

Assay: Plasma protein binding
Format: in vitro ADME
Conditions: plasma
Property: fraction unbound

Prompt line: Query (compound): O=C(C[18F])NCCCCCC(=O)Nc1ccccc1 [[^18F]FAHA] ; field requested: fraction unbound
Response line: 0.539
